system: SN12C renal; assay: NCI tumour cell line growth inhibition, 48 h
readout: TGI

{"molecule": "CN(Cc1cc(Cl)c(Cl)cc1NC(=O)CN)[C@H]1CCCC[C@@H]1N1CCCC1", "readout": "TGI", "value.reported": "> 100 µM"}

Query :: Please look up its TGI: "CC(=O)[CH-]C(C)=O.CC(=O)[CH-]C(C)=O.CC[O-].CC[O-].[Ti+4]"
Result :: > 100 µM

Query :: Please look up its TGI: NC(CSSCC(N)Cc1ccccc1)Cc1ccccc1 (stereo not given)
Result :: > 100 µM

Query :: Please look up its TGI: "C=CC1=C(C)C2=NC1=CC1=NC(=C(CC)/C1=C\O)C=C1N=C3C(=C1C)C(=O)[C@H](C(=O)OC)C3=C1NC(=C2)[C@@H](C)[C@@H]1CCC(=O)O"
Result :: > 100 µM

Query :: Please look up its TGI: "Cc1ccc(-n2cc([Si](C)(C)C)nn2)s1"
Result :: > 100 µM

Query :: Please look up its TGI: "COC(=O)C1=C(C(=O)OC)SC2(S1)C(C(=O)OC)=C(C(=O)OC)Sc1c2ssc1=NC(C)(C)C"
Result :: 2.52 µM

Query :: Please look up its TGI: "O=C(c1ccccc1)c1c(C(F)(F)F)n([O-])c2ccc(C(F)(F)F)cc2[n+]1=O"
Result :: 0.468 µM

Query :: Please look up its TGI: CCC[CH2][Sn]1([CH2]CCC)[O]CC(C)[O]1 (stereo not given)
Result :: 2.78 µM

Query :: Please look up its TGI: "O=C(O)Cn1cc([N+](=O)[O-])c(=O)c2ccccc21"
Result :: > 100 µM

Query :: Please look up its TGI: O=C(CCC(=O)C1CCC/C1=N/O)Nc1ccc(Cl)cc1 (stereo not given)
Result :: > 100 µM

====

test system: M19-MEL melanoma; experiment: NCI tumour cell line growth inhibition, 48 h
readout: TGI

Example molecules with recorded TGI:
{"molecule": "COC(=O)c1nn(C(=N)c2ccc(Cl)cc2)c2c1CCC2", "assayed.system": "M19-MEL melanoma", "readout": "TGI", "value.reported": "> 100 µM"}
{"molecule": "O=C(CC/C(CC(=O)c1ccc(Br)cc1)=N\\O)Nc1ccc(Cl)c(Cl)c1", "assayed.system": "M19-MEL melanoma", "readout": "TGI", "value.reported": "> 100 µM"}
{"molecule": "O=NN(CCCl)C(=O)NC1CCC(CC2CCC(NC(=O)N(CCCl)N=O)CC2)CC1 (centres undefined)", "assayed.system": "M19-MEL melanoma", "readout": "TGI", "value.reported": "> 100 µM"}
{"molecule": "C/C=N\\N1C(=O)c2ccccc2C1=O", "assayed.system": "M19-MEL melanoma", "readout": "TGI", "value.reported": "> 100 µM"}
{"molecule": "CCN(CC)CC(=N)N(CC)c1ccccc1", "assayed.system": "M19-MEL melanoma", "readout": "TGI", "value.reported": "> 100 µM"}
{"molecule": "NNC(=O)C(=O)N/N=C(\\CCC(=O)Nc1ccc(Cl)cc1)Cc1nc2ccccc2s1", "assayed.system": "M19-MEL melanoma", "readout": "TGI", "value.reported": "36.9 µM"}
{"molecule": "O=C(CCC(=O)C1CCC/C1=N/O)Nc1ccc(Cl)cc1 (centres undefined)", "assayed.system": "M19-MEL melanoma", "readout": "TGI", "value.reported": "> 100 µM"}
{"molecule": "CC1(C)CC(N(C(=O)/C=C/c2ccc([N+](=O)[O-])o2)C2CCCCC2)CC(C)(C)N1", "assayed.system": "M19-MEL melanoma", "readout": "TGI", "value.reported": "16.9 µM"}

Query :: Please look up its TGI: "O=C1NCCS(=O)(=O)N2CCC[C@@H]12"
Result :: > 100 µM

Query :: Please look up its TGI: "COc1ccc(Sc2ccccc2N)cc1"
Result :: > 100 µM

Query :: Please look up its TGI: "CCN(CC)C(=S)[S][Bi]([S]C(=S)N(CC)CC)[S]C(=S)N(CC)CC"
Result :: 0.314 µM

Query :: Please look up its TGI: "CCCCNC(=O)/N=C/c1c(O)c2ccccc2oc1=O"
Result :: > 100 µM

Query :: Please look up its TGI: CCc1cccc(C)c1NC(=O)CC1C(=O)Nc2ccccc2S1(=O)=O (centres undefined)
Result :: 38.9 µM

Query :: Please look up its TGI: "CC(=O)N/C(=C\c1ccc(Cc2nc3c([nH]2)C(=O)c2ccccc2C3=O)cc1)c1nc2c([nH]1)C(=O)c1ccccc1C2=O"
Result :: > 100 µM

Provenance of the data: PubChem BioAssay (NCI)
